All figures here come from ChEMBL document CHEMBL5576092.

Assay: Selectivity index, ratio of IC50 for human HepG2 cells to IC50 for Mycoplasma genitalium G37
Format: toxicity
Settings: read-out: Ratio IC50
Measure: selectivity ratio

Which selectivity ratio value is on record for C[C@@H]1C[C@H](C)[C@H]2c3c(ccn(O)c3=O)O[C@H](C)[C@@]2(C)C1 ?
> 32

----------
Test: Selectivity index, ratio of IC50 for human HeLa cells to IC50 for Mycoplasma genitalium G37
Format: toxicity
Conditions: read-out: Ratio IC50
Measure: selectivity ratio

Please look up its selectivity ratio: C[C@@H]1C[C@H](C)[C@H]2c3c(ccn(O)c3=O)O[C@H](C)[C@@]2(C)C1
> 32

----------
MIC overview
Test system: Mycoplasma genitalium
Test: Antibacterial activity against Mycoplasma genitalium G37 assessed as bacterial growth inhibition incubated for 7 days by microbroth dilution assay
Type: functional
Details: Mycoplasmoides genitalium, G37, 168 h; time 7 day

>>> print(df.to_string())
                                        mol  measure  reported_value
0  COn1ccc2c(c1=O)[C@@H]1[C@@H](C)C[C@@H](C)C[C@]1(C)[C@@H](C)O2      MIC         > 80 µM
1  C[C@@H]1C[C@H](C)[C@H]2c3c(cc[nH]c3=O)O[C@H](C)[C@@]2(C)C1      MIC         > 80 µM
2  C[C@@H]1C[C@H](C)[C@H]2c3c(ccn(O)c3=O)O[C@H](C)[C@@]2(C)C1      MIC         0.32 µM
3  COn1ccc(O)c([C@@H]2[C@@H](C)C[C@@H](C)C[C@](C)(O)[C@H]2C)c1=O      MIC         > 80 µM
4  C[C@@H]1C[C@H](C)[C@@H](c2c(O)cc[nH]c2=O)[C@H](C)[C@@](C)(O)C1      MIC         > 80 µM

Here's the next entry for you.
Which value of MIC has been reported for C=C[C@H]1C[C@@H](C)C[C@@H](C)[C@@H]1c1c(O)ccn(O)c1=O in the records?
> 95 µM
